- System: HL60 cells
- assay-procedure: Cytotoxicity assay by MTT
- Assay type: cell-based
- test-parameters: Homo sapiens, HL-60, 96 h, read-out: IC50 MTT

compound	IC50 (nM)
[N-]=[N+]=[N-] [Sodium Azide, sodium azide]	3000

* * *

- System: HL60 cells
- assay-procedure: Cytotoxicity assay in oxygen sensor plates
- Type: cell-based
- test-parameters: Homo sapiens, HL-60, 96 h, read-out: IC50 O2 Sensor
pIC50: −log10 of the molar value.
reported-endpoint: pIC50

compound	val
[N-]=[N+]=[N-] [Sodium Azide, sodium azide]	5.05

* * *

- Test system: HL60 cells
- assay-procedure: Cytotoxicity assay by MTT
- Format: cell-based
- test-parameters: Homo sapiens, HL-60, 48 h, read-out: IC50 MTT

compound	IC50 [µM]
[N-]=[N+]=[N-] [Sodium Azide, sodium azide]	25

* * *

- Tested on: HL60 cells
- assay-procedure: Cytotoxicity assay in oxygen sensor plates
- Format: cell-based
- test-parameters: Homo sapiens, HL-60, 72 h, read-out: IC50 O2 Sensor

compound	u	IC50
[N-]=[N+]=[N-] [Sodium Azide, sodium azide]	µM	13

* * *

- Tested on: HL60 cells
- assay-procedure: Cytotoxicity assay by MTT
- Format: cell-based
- test-parameters: Homo sapiens, HL-60; HL60 cells, 48 hours; read-out: IC50 MTT
reported-endpoint: IC50 (µM)

compound	u	val
CC[C@]1(O)C[C@@H]2CN(CCc3c([nH]c4ccccc34)[C@@](C(=O)OC)(c3cc4c(cc3OC)N(C)[C@H]3[C@@](O)(C(=O)OC)[C@H](OC(C)=O)[C@]5(CC)C=CCN6CC[C@]43[C@@H]65)C2)C1	µM	0.009
CCCCCCCCCCCCOS(=O)(=O)[O-].[Na+] [SDS, Sodium Dodecyl Sulfate]	µM	440

* * *

- Tested on: HL60 cells
- assay-procedure: Cytotoxicity assay in oxygen sensor plates
- Type: cell-based
- test-parameters: Homo sapiens, HL-60, 120 h, read-out: IC50 O2 Sensor
pIC50: −log10 of the molar value.

molecule	pIC50
[N-]=[N+]=[N-] [Sodium Azide, sodium azide]	5.24

Cited source for all entries: patent US7338778B2
